molecular target: Tyrosyl-tRNA synthetase, putative (Trypanosoma cruzi (strain CL Brener)); assay: Trypanosoma cruzi tyrosyl tRNA synthetase (TcYRS) _High Tyrosine SOP; assay type: functional; set-up: scale not given: in the data most compounds retested in dose-response had high values; conditions: 30 µM
Metric: Percent Effect (%)
Express it in %; write the number only.

Consider the following illustrative entries.
O=C(c1cc(COc2ccc3c(c2)OCO3)[nH]n1)N1CCOCC1 ... -3.12
Cc1ccc(CN2CCCC3(COCCN(Cc4c[nH]nn4)C3)C2)o1 (stereo not drawn) ... 7.29

### Prompt Percent Effect lookup needed for Cn1cc(C(=O)NC2CCN(C(=O)NCC3CCSCC3)CC2)cn1 , thanks.
### Response 11.5

### Prompt Can you share its Percent Effect? I mean this compound: CC(=O)N1CCCN(Cc2csc(-c3ncccn3)n2)CC1
### Response 6.38

----------
target: Tyrosyl-tRNA synthetase, putative (Trypanosoma cruzi (strain CL Brener)) (UniProt Q4DSP6); assay: Trypanosoma cruzi tyrosyl tRNA synthetase (TcYRS) SOP; assay type: functional; parameters: scale not given: direction of the effect not stated beside the values; settings: 30 µM
Sequence (Q4DSP6 as listed by the source): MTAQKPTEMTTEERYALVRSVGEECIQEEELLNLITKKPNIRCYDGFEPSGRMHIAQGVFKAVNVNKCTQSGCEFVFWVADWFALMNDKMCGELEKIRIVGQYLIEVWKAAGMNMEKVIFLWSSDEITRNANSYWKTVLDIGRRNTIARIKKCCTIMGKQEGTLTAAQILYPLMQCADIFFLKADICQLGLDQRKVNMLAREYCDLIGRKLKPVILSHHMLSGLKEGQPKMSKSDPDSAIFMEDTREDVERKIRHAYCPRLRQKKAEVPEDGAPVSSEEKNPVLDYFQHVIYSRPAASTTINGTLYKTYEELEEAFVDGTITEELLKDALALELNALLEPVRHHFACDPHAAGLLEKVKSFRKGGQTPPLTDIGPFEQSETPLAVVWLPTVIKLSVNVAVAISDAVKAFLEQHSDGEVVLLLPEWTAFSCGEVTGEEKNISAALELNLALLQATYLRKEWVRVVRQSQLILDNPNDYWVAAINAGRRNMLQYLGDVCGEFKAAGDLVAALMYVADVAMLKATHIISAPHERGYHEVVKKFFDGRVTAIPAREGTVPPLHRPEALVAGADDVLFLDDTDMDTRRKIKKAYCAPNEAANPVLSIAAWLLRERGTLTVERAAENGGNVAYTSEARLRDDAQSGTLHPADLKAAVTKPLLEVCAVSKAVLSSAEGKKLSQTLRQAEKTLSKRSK
# if measured Percent Effect < 10%: Condition met  # else: Condition not met

A selection of reference data follows.
NC(=O)C1CCCN(Cc2c(-c3ccco3)[nH]c3ncccc23)C1 (stereo unspecified) ... Condition not met
COC1CC2(CCN(Cc3ccc4c(c3)OCO4)CC2)C1 ... Condition not met
COc1ccccc1OCC(=O)NS(=O)(=O)c1ccccc1Br ... Condition not met
Cc1ccc(NC2CCN(C(=O)Cn3nc(C)cc3C)CC2)nn1 ... Condition not met
CCc1nc2n(n1)CC(Nc1cc(C)nc3ncnn13)CC2 (stereo unspecified) ... Condition not met
CC(=O)N1CCC(c2cncc(Oc3ccccc3)n2)CC1 ... Condition met
CCSc1ccc(C(=O)Nc2c(C)nn(C(C)C)c2C)cn1 ... Condition met
COc1ccc2c(c1)CCCN2Cc1nc2c(cnn2C)c(=O)[nH]1 ... Condition not met

### Prompt Check if Percent Effect falls below 10% for Cc1cnc2n1CCN(C)C21CCN(C(=O)CC(C)C)CC1 .
### Response Condition not met

### Prompt I'd appreciate it if you could check whether CCOc1ccc(Cl)c(C(=O)N2CCN(C(=O)c3ccoc3C)CC2)n1 has Percent Effect smaller than 10%.
### Response Condition not met

### Prompt Quick check: does Cc1nc(C)n(CC2CCCN2CC(=O)NCCc2ccccc2)n1 (stereo unspecified) have Percent Effect under 10%?
### Response Condition met

### Prompt Find out if reported Percent Effect for Cn1ccc2ccc(C(=O)N3CCN(C(=O)N4CCOCC4)CC3)cc21 is less than 10%
### Response Condition not met

### Prompt I'd appreciate it if you could check whether c1ccc(-n2ncc(CNC3CCc4ncnn4C3)n2)cc1 (stereo unspecified) has Percent Effect smaller than 10%.
### Response Condition met

### Prompt Record CN1CCN(C(=O)c2ccc(=O)n(C)c2)c2ccccc21 : is its Percent Effect strictly below 10%?
### Response Condition not met

### Prompt Please determine if CSc1cccc(CNC(=O)C2CC(=O)N(CCN(C)C)C2)c1 (stereo unspecified) is below 10% in terms of Percent Effect.
### Response Condition not met

----------
target: Sialic acid-binding Ig-like lectin 9 (Homo sapiens); assay: Hs-Siglec9 ALPHAscreen SOP 20170721; design: scale not given: direction of the effect not stated beside the values; conditions: 10 µM
Metric: Percent Effect (%)
Give the number; % is assumed, so skip it.

Some solved entries appear below for comparison.
c1cnc(-c2nc(CN3CCOC(Cn4cncn4)C3)cs2)nc1 (stereo not given) ... -4.32
O=C1CCCCN1c1cccc(CNC2CCCC2)c1 ... 3.26
Cc1cc(C2CCCN(C(=O)c3ccc(C)[nH]c3=O)C2)n[nH]1 (stereo not given) ... 6.13
CCn1cnnc1C1CCN(C(=O)C(OC)c2ccccc2)CC1 (stereo not given) ... -9.96
CC1COCCN1C(=O)c1cccc(OCc2cscn2)c1 (stereo not given) ... -10.6
CCS(=O)(=O)N1Cc2nccn2CC(COc2cccnc2)C1 (stereo not given) ... 3.69

### Prompt Entry Cc1noc(C)c1CN1CCc2nn(C(C)C)c(=O)cc2C1 has what Percent Effect?
### Response 20.3

### Prompt Tell me the measured Percent Effect of Cc1cc2c(=O)n3c(nc2s1)CCN(C(=O)c1scnc1C)CC3 , please.
### Response 2.42

### Prompt Form field: reported Percent Effect of O=C(NCCn1ccc(-c2ccccn2)n1)c1ccncc1
### Response 17.5

### Prompt Would you kindly share the measured Percent Effect for Cc1cccnc1CN(C)CC1(O)CCCN(CC2CCCCC2)C1=O (stereo not given) ?
### Response 19.5

Every entry's value here was drawn from ChEMBL document CHEMBL3988442.
